Recorded interaction score for the following binders
- tested_system: T1, 4H883-bA
- T1 chain: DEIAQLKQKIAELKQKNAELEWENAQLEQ
- protocol_details: two-hybrid library CCNG1;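 also: natural log of median RNA to DNA barcode read ratio; higher means stronger binding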
A bare number is all that is needed in reply.

Record excerpt, results attached:
>  <binder>
DEIAQLKQKIAELKQKNAELEWENAQLEQ [4H883-bA]

>  <interaction score>
-0.18

$$$$
>  <binder>
DKIAQLEQKNAELEQEIAELKWEIAQLKQ [4H2442-bA]

>  <interaction score>
-1.15

$$$$
>  <binder>
DEIAQLEQKIAELKQKNAELEWEIAQLKQ [4H370-bA]

>  <interaction score>
-0.545

$$$$
>  <binder>
DEIAQLKQENAELKQEIAELKWKIAQLEQ [4H717-bA]

>  <interaction score>
-1.09

$$$$
>  <binder>
DEIAQLKQKIAELEQENAELKWKIAQLEQ [4H797-bA]

>  <interaction score>
-0.129

$$$$
>  <binder>
DKNAQLKQKNAELEQKIAELEWEIAQLEQ [4H4001-bA]

>  <interaction score>
-0.688

$$$$

Would you kindly look at the next entry?
Can you look up the measured interaction score of DKIAQLKQEIAELEQKNAELKWEIAQLKQ [4H2618-bA] for me?
0.137
